So I've got a bunch of molecules here, and I need their pKi values.
Conceptually, pKi converts a concentration in mol/L into minus its log10.

Kindly note: UniProtKB P00742, NC(N)=Nc1ccc(C(=O)N(Cc2ccc(C(=O)O)cc2)C2CCN(S(=O)(=O)/C=C/c3ccc(Cl)cc3)C2)cc1 (centres unmarked) [Compound 5] , pKi value reported: 6.70

Kindly note: UniProtKB P00742, NC(N)=Nc1ccc(C(=O)N(Cc2ccc(C(=O)NCC(=O)O)cc2)C2CCN(S(=O)(=O)/C=C/c3ccc(Cl)cc3)C2)cc1 (centres unmarked) [Compound 12] , pKi value reported: 6.40

Kindly note: UniProtKB P00742, COC(=O)CNC(=O)c1cccc(CN(C(=O)c2ccc(N=C(N)N)cc2)C2CCN(S(=O)(=O)/C=C/c3ccc(Cl)cc3)C2)c1 (centres unmarked) [Compound 13] , pKi value reported: 6.70

Kindly note: UniProtKB P00742, COC(=O)c1ccc(CN(C2CCN(C(=O)c3ccc(N=C(N)N)cc3)C2)S(=O)(=O)/C=C/c2ccc(Cl)cc2)cc1 (centres unmarked) [Compound 22] , pKi value reported: 5.15

Kindly note: UniProtKB P00742, COC(=O)CNC(=O)c1ccc(CN(C(=O)c2ccc(N=C(N)N)cc2)C2CCN(S(=O)(=O)/C=C/c3ccc(Cl)cc3)C2)cc1 (centres unmarked) [Compound 10] , pKi value reported: 6.70

---

# TEST TARGET: human Lung Tryptase
# Construct: 1.0 nM human Lung Tryptase
# PROTOCOL: Tryptase inhibition, chromogenic peptide substrate hydrolysis assay
# EXPERIMENTAL PARAMETERS: 1.0 nM tryptase, 500 μM N-p-Tosyl-GLY-PRO-LYS-pNA, 37° C.
So I've got a bunch of compounds here, and I need their IC50 values.
Field: numeric (nM). Do not append units.

Notebook: NC(N)=Nc1ccc(C(=O)N(Cc2ccc(O)cc2)C2CCN(S(=O)(=O)/C=C/c3ccc(Cl)cc3)C2)cc1 (stereo not drawn) , IC50 read as 900

Notebook: NC(N)=Nc1ccc(C(=O)NC2CCN(S(=O)(=O)/C=C/c3ccc(Cl)cc3)C2)cc1 (stereo not drawn) , IC50 read as 600

Notebook: COC(=O)c1cc(CN(C(=O)c2ccc(N=C(N)N)cc2)C2CCN(S(=O)(=O)/C=C/c3ccc(Cl)cc3)C2)ccc1O (stereo not drawn) , IC50 read as 700
